Below, each entry is listed alongside its reported Stability S.
Experimental Details: Stability of each chemical component in rat plasma
Assay type: in vitro ADME
Assay Conditions: 100 ng/mL, −20 °C free for 15 d
The figure you give is taken to be in %; do not add the unit.

| Smiles Code | Stability S, % |
| --- | --- |
| O=C(O)c1cc(O)c2c(c1)C(=O)c1cccc(O)c1C2=O | 95.30 |
| COc1cc(O)c2c(c1)C(=O)c1cc(C)cc(O)c1C2=O | 100.6 |

Per the record, Cc1cc(O)c2c(c1)C(=O)c1cc(O)cc(O)c1C2=O has Stability S of 108.40

Per the record, Cc1cc(O)c2c(c1)C(=O)c1cccc(O)c1C2=O has Stability S of 102.30

Per the record, O=C1c2cccc(O)c2C(=O)c2c(O)cc(CO)cc21 has Stability S of 84.3
